Tested on: Mus musculus
measurement-protocol: Analgesic activity in Wister albino mice at 20 mg/kg, po after 30 mins by tail-flick test
// label = y if Activity is not less than 50%, otherwise n

| compound | classification |
| --- | --- |
| CN1CCN(c2ccc(-c3c(C#N)c(N)nc4[nH]c(=S)[nH]c(=O)c34)cc2)CC1 | y |
| CN1CCN(c2ccc(-c3c4c(=O)[nH]c(=S)[nH]c4nc4[nH]c(=S)sc(=N)c34)cc2)CC1 | n |
| N#Cc1c(N)nc2[nH]c(=S)[nH]c(=O)c2c1-c1ccc(N2CCCCC2)cc1 | y |
| Cc1nc2nc3[nH]c(=S)[nH]c(=O)c3c(-c3ccc(N4CCCCC4)cc3)c2c(=O)[nH]1 | n |
| Nc1nc(=O)[nH]c2nc3[nH]c(=S)[nH]c(=O)c3c(-c3ccc(N4CCCCC4)cc3)c12 | n |
| Nc1ncnc2nc3[nH]c(=S)[nH]c(=O)c3c(-c3ccc(N4CCCCC4)cc3)c12 | y |
| O=C([O-])Cc1ccccc1Nc1c(Cl)cccc1Cl.[Na+] [DICLOFENAC SODIUM] | n |

###

Reported Activity values are given for each entry in this list.
System: Rattus norvegicus
measurement-protocol: Antiinflammatory activity in rat assessed as inhibition of carrageenan-induced paw oedema at 20 mg/kg, po after 30 mins
Format: functional
Parameters: scale not given: the % may be the effect or the level left

| structure-smiles | assay-system | unit-label | Activity |
| --- | --- | --- | --- |
| CN1CCN(c2ccc(-c3c4c(=O)[nH]c(=S)[nH]c4nc4[nH]c(=S)sc(=N)c34)cc2)CC1 | Rattus norvegicus | % | 39 |
| Nc1ncnc2nc3[nH]c(=S)[nH]c(=O)c3c(-c3ccc(N4CCOCC4)cc3)c12 | Rattus norvegicus | % | 43 |
| Nc1nc(=S)[nH]c2nc3[nH]c(=S)[nH]c(=O)c3c(-c3ccc(N4CCOCC4)cc3)c12 | Rattus norvegicus | % | 39 |
| Nc1ncnc2nc3[nH]c(=S)[nH]c(=O)c3c(-c3ccc(N4CCCCC4)cc3)c12 | Rattus norvegicus | % | 42 |
| N#Cc1c(N)nc2[nH]c(=S)[nH]c(=O)c2c1-c1ccc(N2CCCCC2)cc1 | Rattus norvegicus | % | 45 |
| Cc1nc2nc3[nH]c(=S)[nH]c(=O)c3c(-c3ccc(N4CCCCC4)cc3)c2c(=O)[nH]1 | Rattus norvegicus | % | 36 |

###

Tested on: Rattus norvegicus
measurement-protocol: Antiinflammatory activity in rat assessed as inhibition of carrageenan-induced paw oedema at 20 mg/kg, po after 30 mins
Assay type: functional
Set-up: scale not given: the % may be the effect or the level left
// label = yes if Activity is not less than 40%, otherwise no

| molecule | classification |
| --- | --- |
| CN1CCN(c2ccc(-c3c4c(N)ncnc4nc4[nH]c(=S)[nH]c(=O)c34)cc2)CC1 | yes |
| O=c1[nH]cnc2nc3[nH]c(=S)[nH]c(=O)c3c(-c3ccc(N4CCCCC4)cc3)c12 | no |
| O=C([O-])Cc1ccccc1Nc1c(Cl)cccc1Cl.[Na+] [DICLOFENAC SODIUM] | yes |
| N=c1sc(=S)[nH]c2nc3[nH]c(=S)[nH]c(=O)c3c(-c3ccc(N4CCOCC4)cc3)c12 | no |
| N=c1sc(=S)[nH]c2nc3[nH]c(=S)[nH]c(=O)c3c(-c3ccc(N4CCCCC4)cc3)c12 | no |
| N#Cc1c(N)nc2[nH]c(=S)[nH]c(=O)c2c1-c1ccc(N2CCOCC2)cc1 | yes |
| CN1CCN(c2ccc(-c3c(C#N)c(N)nc4[nH]c(=S)[nH]c(=O)c34)cc2)CC1 | yes |
